Each entry below carries its reported MIC.
- Test system: Candida albicans
- assay.summary: Antifungal activity against Candida albicans assessed as reduction in fungal cell growth incubated for 48 hrs by broth microdilution method
- Assay type: functional
observation.type: MIC

compound: OC(Cn1cncn1)(Cn1nnc(CCN2CCN(Cc3ccccc3)CC2)n1)c1ccc(F)cc1F (centres undefined)
result: 1 to 16 µg/mL

compound: CC(n1nnc(CCN2CCN(c3c(Cl)cccc3Cl)CC2)n1)C(O)(Cn1cncn1)c1ccc(F)cc1F (centres undefined)
result: 1 to 16 µg/mL

compound: OC(Cn1cncn1)(Cn1nnc(CCN2CCN(c3ccccc3)CC2)n1)c1ccc(F)cc1F (centres undefined)
result: 1 to 16 µg/mL

compound: C[C@H](n1nnc(CCN2CCN(c3ccccn3)CC2)n1)[C@](O)(Cn1cncn1)c1ccc(F)cc1F
result: 0.25 to 16 µg/mL

compound: CC(n1nnc(CCN2CCN(c3ccc(F)cc3)CC2)n1)C(O)(Cn1cncn1)c1ccc(F)cc1F (centres undefined)
result: 1 to 16 µg/mL

compound: OC(Cn1cncn1)(Cn1nnc(CCN2CCN(c3ccc(Cl)cc3)CC2)n1)c1ccc(F)cc1F (centres undefined)
result: 1 to 16 µg/mL

compound: CC(n1nnc(CCN2CCN(c3ccccc3Cl)CC2)n1)C(O)(Cn1cncn1)c1ccc(F)cc1F (centres undefined)
result: 1 to 16 µg/mL

compound: OC(Cn1cncn1)(Cn1nnnc1CCN1CCN(c2ccc(F)cc2)CC1)c1ccc(F)cc1F (centres undefined)
result: 0.5 to 16 µg/mL

compound: OC(Cn1cncn1)(Cn1nnnc1CCN1CCN(c2ccccc2)CC1)c1ccc(F)cc1F (centres undefined)
result: 0.5 to 16 µg/mL

compound: OC(Cn1cncn1)(Cn1nnc(CCN2CCN(c3ccccc3Cl)CC2)n1)c1ccc(F)cc1F (centres undefined)
result: 1 to 16 µg/mL

compound: CCCCOc1ccccc1N1CCN(CCc2nnnn2[C@@H](C)[C@](O)(Cn2cncn2)c2ccc(F)cc2F)CC1
result: 0.12 to 16 µg/mL

compound: CC(n1nnnc1CCN1CCN(c2c(Cl)cccc2Cl)CC1)C(O)(Cn1cncn1)c1ccc(F)cc1F (centres undefined)
result: 0.5 to 16 µg/mL

compound: COc1ccccc1N1CCN(CCc2nnn([C@@H](C)[C@](O)(Cn3cncn3)c3ccc(F)cc3F)n2)CC1
result: 0.25 to 16 µg/mL

compound: C[C@H](n1nnc(CCN2CCN(c3ccccc3Cl)CC2)n1)[C@](O)(Cn1cncn1)c1ccc(F)cc1F
result: 0.25 to 16 µg/mL

compound: O=[N+]([O-])c1cccc(C2c3ccc4ccccc4c3Oc3[nH]c(=S)n4nnnc4c32)c1 (centres undefined)
result: 50 to 400 µg/mL

compound: C[C@H](n1nnc(CCN2CCN(c3ccc([N+](=O)[O-])cc3)CC2)n1)[C@](O)(Cn1cncn1)c1ccc(F)cc1F
result: 0.25 to 16 µg/mL

compound: CC(n1nnnc1CCN1CCN(C(c2ccccc2)c2ccccc2)CC1)C(O)(Cn1cncn1)c1ccc(F)cc1F (centres undefined)
result: 0.5 to 16 µg/mL

compound: OC(Cn1cncn1)(Cn1nnnc1CCN1CCN(c2ccccc2Cl)CC1)c1ccc(F)cc1F (centres undefined)
result: 0.5 to 16 µg/mL

compound: CC(n1nnnc1CCN1CCN(Cc2ccccc2)CC1)C(O)(Cn1cncn1)c1ccc(F)cc1F (centres undefined)
result: 0.5 to 16 µg/mL

compound: COc1ccccc1N1CCN(CCc2nnn(CC(O)(Cn3cncn3)c3ccc(F)cc3F)n2)CC1 (centres undefined)
result: 1 to 16 µg/mL

compound: CC(n1nnc(CCN2CCN(c3ccccc3)CC2)n1)C(O)(Cn1cncn1)c1ccc(F)cc1F (centres undefined)
result: 1 to 16 µg/mL

compound: CC(n1nnnc1CCN1CCN(c2cccc(C(F)(F)F)c2)CC1)C(O)(Cn1cncn1)c1ccc(F)cc1F (centres undefined)
result: 0.5 to 16 µg/mL

compound: C[C@H](n1nnc(CCN2CCN(c3c(Cl)cccc3Cl)CC2)n1)[C@](O)(Cn1cncn1)c1ccc(F)cc1F
result: 0.25 to 16 µg/mL

compound: COc1ccc(N2CCN(CCc3nnnn3C(C)C(O)(Cn3cncn3)c3ccc(F)cc3F)CC2)cc1 (centres undefined)
result: 0.5 to 16 µg/mL

compound: C[C@H](n1nnnc1CCN1CCN(c2ccccc2)CC1)[C@](O)(Cn1cncn1)c1ccc(F)cc1F
result: 0.12 to 16 µg/mL

compound: C[C@H](n1nnc(CCN2CCN(c3ccc(F)cc3)CC2)n1)[C@](O)(Cn1cncn1)c1ccc(F)cc1F
result: 0.25 to 16 µg/mL

compound: S=c1[nH]c2c(c3nnnn13)C(c1ccccc1)c1ccc3ccccc3c1O2 (centres undefined)
result: 50 to 400 µg/mL

compound: C[C@H](n1nnnc1CCN1CCN(C(c2ccccc2)c2ccccc2)CC1)[C@](O)(Cn1cncn1)c1ccc(F)cc1F
result: 0.12 to 16 µg/mL

compound: CC(n1nnc(CCN2CCN(c3cccc(C(F)(F)F)c3)CC2)n1)C(O)(Cn1cncn1)c1ccc(F)cc1F (centres undefined)
result: 1 to 16 µg/mL

compound: OC(Cn1cncn1)(Cn1nnnc1CCN1CCN(c2ccc(Cl)cc2)CC1)c1ccc(F)cc1F (centres undefined)
result: 0.5 to 16 µg/mL

compound: CCCCOc1ccccc1N1CCN(CCc2nnn([C@@H](C)[C@](O)(Cn3cncn3)c3ccc(F)cc3F)n2)CC1
result: 0.25 to 16 µg/mL

compound: OC(Cn1cncn1)(Cn1nnc(CCN2CCN(c3ccc(F)cc3)CC2)n1)c1ccc(F)cc1F (centres undefined)
result: 1 to 16 µg/mL

compound: C[C@H](n1nnc(CCN2CCN(c3cccc(C(F)(F)F)c3)CC2)n1)[C@](O)(Cn1cncn1)c1ccc(F)cc1F
result: 0.25 to 16 µg/mL

compound: C[C@H](n1nnnc1CCN1CCN(c2c(Cl)cccc2Cl)CC1)[C@](O)(Cn1cncn1)c1ccc(F)cc1F
result: 0.12 to 16 µg/mL

Attribution: ChEMBL document CHEMBL4393657
